# target or test system: MAGI2_4, Q86UL8
# Sequence (Q86UL8 772-865): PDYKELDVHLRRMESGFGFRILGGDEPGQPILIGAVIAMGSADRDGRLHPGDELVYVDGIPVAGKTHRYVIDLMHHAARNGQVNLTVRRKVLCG
# protocol text: holdup assay
# Parameters: key: below the threshold = too weak to quantify, mostly under pKd 3.1 to 4
# settings: plain residues with an end cap or a label only (N-terminal biotin on a linker: ado-ado)
outcome measure: pKd

# binder, outcome measure, result
measured = [
    ("VISSDDLTEL [CAPN6, Q9Y6Q1]", "pKd", "below the threshold"),
    ("YAEKRMLTEV [KCNA6, P17658]", "pKd", 4.34),
    ("STYCDYTIEI [FAM71C, Q8NEG0]", "pKd", "below the threshold"),
    ("IKLETKKTKL [SLC15A2, Q16348]", "pKd", "below the threshold"),
]
